- Test system: SARS-CoV-2-GHB-03021/2020
- method.description: microbe, parasite or virus in culture
- Format: cell-based
- recorded.conditions: Severe acute respiratory syndrome coronavirus 2, Vero C1008, 96 h; read-out: VeroE6 + CP (EC50)
pEC50: −log10 of the molar value.
Below, each entry is listed alongside its reported pEC50.
reported.endpoint: pEC50

compound="O=C(NCc1ccccc1)C(=O)C(C[C@@H]1CCNC1=O)NC(=O)[C@@H]1C[C@@H](C2CC2)CN1C(=O)c1cc2ccccc2[nH]1 (stereo partly drawn)" tgt=SARS-CoV-2-GHB-03021/2020 meas_value="5.00 to 6.00"
compound=COc1cccc2[nH]c(C(=O)N3C[C@H](c4ccccc4)C[C@H]3C(=O)N[C@@H](C[C@@H]3CCNC3=O)C(=O)CO)cc12 tgt=SARS-CoV-2-GHB-03021/2020 meas_value="5.00 to 6.00"
compound=COc1cccc2[nH]c(C(=O)N3C[C@@H]4CCC[C@@H]4[C@H]3C(=O)N[C@@H](C[C@@H]3CCNC3=O)C(=O)c3ncc[nH]3)cc12 tgt=SARS-CoV-2-GHB-03021/2020 meas_value="< 4.00"

---

- System: SARS-CoV-2-GHB-03021/2020
- method.description: SARS-CoV-2 Infection Model in Huh7 Cells
- Assay type: cell-based
- recorded.conditions: Severe acute respiratory syndrome coronavirus 2, Huh-7, 96 h, SARS-CoV-2, day 4 p.i., MTS, numeric bounds
pEC50: −log10 of the molar value.
reported.endpoint: pEC50

smiles_representation=CS(=O)(=O)Oc1cccc2[nH]c(C(=O)N3C[C@@H]4CCC[C@@H]4[C@H]3C(=O)N[C@@H](C[C@@H]3CCNC3=O)C(=O)CO)cc12 tgt=SARS-CoV-2-GHB-03021/2020 meas_value="< 4.30"
smiles_representation=CS(=O)(=O)c1cccc2[nH]c(C(=O)N3C[C@@H]4CCC[C@@H]4[C@H]3C(=O)N[C@@H](C[C@@H]3CCNC3=O)C(=O)CO)cc12 tgt=SARS-CoV-2-GHB-03021/2020 meas_value="< 4.30"
smiles_representation=COc1cccc2[nH]c(C(=O)N3C[C@@H]4CCC[C@@H]4[C@H]3C(=O)N[C@@H](CN3CC[C@H](O)C3=O)C(=O)C(=O)NC3CC3)cc12 tgt=SARS-CoV-2-GHB-03021/2020 meas_value="< 4.30"

---

- System: SARS-CoV-2-GHB-03021/2020
- method.description: microbe, parasite or virus in culture
- Format: cell-based
- recorded.conditions: Severe acute respiratory syndrome coronavirus 2, Vero C1008, 96 h; read-out: VeroE6 + CP (EC50)
pEC50: −log10 of the molar value.
reported.endpoint: pEC50

molecule=O=C1NCC[C@H]1C[C@H](NC(=O)[C@@H]1[C@H]2CCC[C@H]2CN1C(=O)c1cc(S(=O)(=O)c2ccccc2)c[nH]1)C(=O)CO reported_endpoint=pEC50 meas_value="4.00 to 5.00"
molecule=COc1cccc2[nH]c(C(=O)N3CC4(CC4)C[C@H]3C(=O)N[C@@H](C[C@@H]3CCCNC3=O)C(=O)CO)cc12 reported_endpoint=pEC50 meas_value="5.00 to 6.00"
molecule="COc1cccc2[nH]c(C(=O)N3C[C@@H]4CCC[C@@H]4[C@H]3C(=O)NC(C[C@@H]3CCNC3=O)C(=O)C(=O)NC3CC3)cc12 (stereo partly shown)" reported_endpoint=pEC50 meas_value="5.00 to 6.00"
molecule="COc1cccc2[nH]c(C(=O)N3C[C@@H]4CCC[C@@H]4[C@H]3C(=O)NC(C[C@@H]3CCCNC3=O)C(=O)C(=O)NC3CC3)cc12 (stereo partly shown)" reported_endpoint=pEC50 meas_value="5.00 to 6.00"

Every entry's value here was drawn from patent US11952365B2.
